# Assayed system: DNA gyrase (Staphylococcus aureus, UniProt P0A0K8+P20831)
# Sequence (P0A0K8 whole entry): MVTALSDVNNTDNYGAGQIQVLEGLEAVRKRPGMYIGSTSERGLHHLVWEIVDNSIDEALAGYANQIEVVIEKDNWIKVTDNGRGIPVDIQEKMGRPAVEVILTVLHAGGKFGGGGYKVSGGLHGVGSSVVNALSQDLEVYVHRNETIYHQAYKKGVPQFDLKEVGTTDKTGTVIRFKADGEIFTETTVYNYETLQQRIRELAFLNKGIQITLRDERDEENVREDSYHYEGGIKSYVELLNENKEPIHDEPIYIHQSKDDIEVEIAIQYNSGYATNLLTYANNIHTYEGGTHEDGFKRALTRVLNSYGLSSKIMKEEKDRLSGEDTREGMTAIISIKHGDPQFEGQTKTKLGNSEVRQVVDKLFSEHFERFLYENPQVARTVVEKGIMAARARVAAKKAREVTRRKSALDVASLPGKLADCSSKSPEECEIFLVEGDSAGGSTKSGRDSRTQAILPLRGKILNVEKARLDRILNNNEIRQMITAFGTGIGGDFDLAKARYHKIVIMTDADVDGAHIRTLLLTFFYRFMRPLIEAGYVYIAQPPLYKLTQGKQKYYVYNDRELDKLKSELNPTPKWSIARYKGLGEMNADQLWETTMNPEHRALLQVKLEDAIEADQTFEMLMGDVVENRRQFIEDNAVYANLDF
# Sequence (P20831 whole entry): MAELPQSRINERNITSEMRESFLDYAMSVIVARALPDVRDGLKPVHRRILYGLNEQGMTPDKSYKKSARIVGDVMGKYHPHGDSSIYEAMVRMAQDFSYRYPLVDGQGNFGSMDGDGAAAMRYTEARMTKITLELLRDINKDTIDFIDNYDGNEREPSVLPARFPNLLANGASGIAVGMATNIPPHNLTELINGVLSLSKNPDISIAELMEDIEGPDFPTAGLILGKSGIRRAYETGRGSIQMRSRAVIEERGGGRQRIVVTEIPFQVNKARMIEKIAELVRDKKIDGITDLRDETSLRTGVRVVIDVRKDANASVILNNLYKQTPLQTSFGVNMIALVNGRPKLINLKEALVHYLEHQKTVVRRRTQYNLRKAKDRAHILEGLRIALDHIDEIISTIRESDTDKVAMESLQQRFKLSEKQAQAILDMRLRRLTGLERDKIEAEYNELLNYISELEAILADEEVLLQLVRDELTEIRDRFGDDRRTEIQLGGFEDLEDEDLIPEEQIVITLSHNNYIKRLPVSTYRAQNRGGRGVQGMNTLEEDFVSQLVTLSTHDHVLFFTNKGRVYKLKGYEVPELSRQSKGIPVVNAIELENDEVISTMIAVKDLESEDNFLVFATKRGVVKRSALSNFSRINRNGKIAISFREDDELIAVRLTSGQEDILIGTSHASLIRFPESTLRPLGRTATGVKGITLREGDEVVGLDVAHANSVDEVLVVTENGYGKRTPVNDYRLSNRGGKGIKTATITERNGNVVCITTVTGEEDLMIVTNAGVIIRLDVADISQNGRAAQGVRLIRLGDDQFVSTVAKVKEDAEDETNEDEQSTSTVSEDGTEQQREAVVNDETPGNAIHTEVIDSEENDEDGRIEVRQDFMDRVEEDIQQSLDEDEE
# Experiment notes: Inhibition of Staphylococcus aureus DNA gyrase supercoiling incubated for 30 mins in presence of ATP
Quick reference: IC50 of the listed items.

{"columns": ["Compound", "Units symbol", "Value modifier", "IC50"],
 "data": [
  ["COc1ccc2nccc(CCN3CCC(NC(=O)c4cc(F)c(Cl)c(F)c4)CC3)c2n1", "nM", "=", 220],
  ["COc1ccc2nccc(OC[C@H]3CC[C@H](NC(=O)c4cc(F)c(Br)c(F)c4)CC3)c2n1", "nM", ">", 100000],
  ["COc1ccc2nccc(OC[C@@H]3CC[C@@H](NCc4cc(F)c(Br)c(F)c4)CO3)c2n1", "nM", "=", 56],
  ["COc1ccc2nccc(OC[C@@H]3CC[C@@H](NC(=O)c4cc(F)c(Br)c(F)c4)CO3)c2n1", "nM", "=", 185],
  ["COc1ccc2nccc(OC[C@H]3CC[C@H](NC(=O)c4cc(F)c(Cl)c(F)c4)CC3)c2n1", "nM", ">", 100000],
  ["COc1ccc2nccc(OC[C@H]3CC[C@H](NCc4cc(F)c(Br)c(F)c4)CC3)c2n1", "nM", "=", 113],
  ["COc1ccc2nccc(OC[C@H]3CC[C@H](NC(=O)c4ccc(I)c(F)c4)CC3)c2n1", "nM", ">", 100000],
  ["COc1ccc2nccc(C(O)C[C@H]3CC[C@H](NCc4cc(F)c(Br)c(F)c4)CC3)c2n1 (some centres undefined)", "nM", "=", 21],
  ["COc1ccc2nccc(OC[C@@H]3CC[C@@H](NC(=O)c4cc(F)c(Cl)c(F)c4)CO3)c2n1", "nM", "=", 445]
]}
